- test.system: human TLR9 (Homo sapiens (Human), UniProt Q9NR96)
- Sequence (Q9NR96 26-1032): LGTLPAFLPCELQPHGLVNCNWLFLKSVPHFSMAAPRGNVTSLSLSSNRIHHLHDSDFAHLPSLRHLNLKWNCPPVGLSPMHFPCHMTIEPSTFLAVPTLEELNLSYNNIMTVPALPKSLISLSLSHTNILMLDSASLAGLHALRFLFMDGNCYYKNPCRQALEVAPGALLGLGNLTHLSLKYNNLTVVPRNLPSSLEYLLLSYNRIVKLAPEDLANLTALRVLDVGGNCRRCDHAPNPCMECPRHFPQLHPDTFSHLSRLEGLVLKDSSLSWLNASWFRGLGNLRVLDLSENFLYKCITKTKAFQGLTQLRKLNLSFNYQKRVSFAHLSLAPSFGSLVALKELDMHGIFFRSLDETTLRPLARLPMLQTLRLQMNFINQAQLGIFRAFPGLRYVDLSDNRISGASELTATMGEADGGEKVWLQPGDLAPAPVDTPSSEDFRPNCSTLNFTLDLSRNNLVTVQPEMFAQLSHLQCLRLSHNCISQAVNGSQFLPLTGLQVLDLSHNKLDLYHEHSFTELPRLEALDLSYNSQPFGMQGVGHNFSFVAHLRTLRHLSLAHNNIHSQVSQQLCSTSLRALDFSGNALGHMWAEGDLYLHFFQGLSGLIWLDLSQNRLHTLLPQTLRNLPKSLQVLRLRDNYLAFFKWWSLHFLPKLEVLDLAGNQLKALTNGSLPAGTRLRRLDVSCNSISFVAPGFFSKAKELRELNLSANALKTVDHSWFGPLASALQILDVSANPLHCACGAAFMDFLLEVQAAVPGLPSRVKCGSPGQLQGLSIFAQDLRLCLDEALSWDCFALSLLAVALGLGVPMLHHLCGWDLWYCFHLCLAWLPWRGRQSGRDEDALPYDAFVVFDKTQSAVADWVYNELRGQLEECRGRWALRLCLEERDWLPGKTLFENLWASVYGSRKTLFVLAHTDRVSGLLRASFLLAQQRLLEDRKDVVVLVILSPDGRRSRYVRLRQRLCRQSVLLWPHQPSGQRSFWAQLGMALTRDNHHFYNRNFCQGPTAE
- method.summary: TLR9 inhibition reporter assay (HEK-Blue SEAP);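 note: SEAP driven by an IFN-β minimal promoter with NF-κB and AP-1 sites, read after 22 h, compounds dosed 0.05 nM–50 µM, inhibition scaled between agonist plus DMSO and reference-inhibitor wells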
- experimental.setup: read-out: TLR9 IC50; HEK-Blue human TLR9 cells, ODN2006 5 nM
pIC50: −log10 of the molar value.
measured.attribute: pIC50

[[record]]
compound = "Cc1c(-c2[nH]c3ccc(C4CCC(N5CCC6(CCOC6)C5)CC4)nc3c2C(C)C)cn2ncnc2c1C (stereo not drawn) [Example 1059]"
result_value = 5.65

[[record]]
compound = "COc1cc(-c2[nH]c3ccc(C4CCC(N5CCC(F)C5)CC4)nc3c2C(C)C)cn2ncnc12 (stereo not drawn) [Example 1072]"
result_value = 5.23

[[record]]
compound = "Cc1c(-c2[nH]c3ccc(N4CCN(C(=O)CN5CC6(CCO6)C5)CC4)nc3c2C(C)C)cn2ncnc2c1C"
result_value = 4.69


I = Cc1c(-c2[nH]c3ccc(N4CCN(CC(N)=O)C[C@@H]4C)nc3c2C(C)C)cn2ncnc2c1C
II = Cc1c(-c2[nH]c3ccc(NCCNC(=O)CN(C)C)nc3c2C(C)C)cn2ncnc2c1C
III = COC1CN(CC(=O)N2CCN(c3ccc4[nH]c(-c5cn6ncnc6c(C)c5C)c(C(C)C)c4n3)CC2)C1
**Query** Arrange these 3 compounds in increasing order of pIC50. A complete answer lists every label in the requested sequence.
**Result** I, III, II

1 = COc1cc(-c2[nH]c3ccc(N4CC5(CN(C)C5)C4)nc3c2C(C)C)cn2ncnc12
2 = CCN(CC(=O)N1CCN(c2ccc3[nH]c(-c4cn5ncnc5c(C)c4C)c(C(C)C)c3n2)CC1)C(C)C
**Query** Of 1 and 2 , which carries the smaller reported pIC50 figure? Refer to your chosen item by its label in the answer.
**Result** 2

a = CCN1CC2(C1)CN(c1ccc3[nH]c(-c4cc(OC)c5ncnn5c4)c(C(C)C)c3n1)C2
b = CCN(C)CC(=O)N1C[C@@H](C)N(c2ccc3[nH]c(-c4cn5ncnc5c(C)c4C)c(C(C)C)c3n2)C[C@@H]1C
**Query** pIC50 comparison. Which is larger, a or b ? Response format: the label of the selected entry.
**Result** a
(a: 5.56, b: 4.85)

a = Cc1c(-c2[nH]c3ccc(C4CCC(N5CCC6(CCOC6)C5)CC4)nc3c2C(C)C)cn2ncnc2c1C (stereo not drawn) [Example 1066]
b = Cc1c(-c2[nH]c3ccc(N4C[C@@H](C)N(CCC(N)=O)C[C@@H]4C)nc3c2C(C)C)cn2ncnc2c1C
**Query** Between item a and item b , which reported pIC50 is smaller? Let me know the label of the one you choose.
**Result** b
